This section presents binders with their documented pKi values.
- assay_target: recombinant neutral endopeptidase
- experiment_summary: fluorogenic substrate (Abz-RL-EDDnp) inhibition assay, recombinant NEP
Square brackets hold non-standard residues; d marks the D form. Ends that are not written are not given here. pGlu = O=C1CC[C@@H](C(=O)O)N1
In plain terms, pKi is the concentration in mol/L turned into minus its base-10 logarithm.

// known answers, use as guide
[pGlu]DGPIPP [EVASIN-7a]
3.31
EWPRPQIPP (pyroglutamic acid (<E) at position 1 (N-terminus)) [EVASIN-9a]
4.07
[pGlu]GWAWPRPQIPP [EVASIN-12a]
3.97
[pGlu]WGRPPGPPIPP [EVASIN-12b]
3.82

Input line: Record request: pKi value, item [pGlu]GGWPRPGPEIPP [EVASIN-13a]
Output line: 3.33

Input line: Record request: pKi value, item [pGlu]KWAP [EVASIN-5a]
Output line: 3.26

Input line: Record request: pKi value, item [pGlu]GRAPGPPIPP [EVASIN-11b]
Output line: 3.32

Input line: Record request: pKi value, item [pGlu]GRAPHPPIPP [EVASIN-11c]
Output line: 3.23
